biological target: Rap guanine nucleotide exchange factor 3 (Homo sapiens) (UniProt O95398); assay: Counterscreen qHTS for antagonist of cAMP-regulated guanine nucleotide exchange factor 3 (EPAC1) (AID 1645888); conditions: Rap1B-BODIPY-GDP nucleotide exchange, fluorescence; series mostly up to 154 µM;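 note: fluorescence loss as bound BODIPY-GDP is released from Rap1B; % of control where 0% means no effect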
Sequence (O95398 whole entry, looked up): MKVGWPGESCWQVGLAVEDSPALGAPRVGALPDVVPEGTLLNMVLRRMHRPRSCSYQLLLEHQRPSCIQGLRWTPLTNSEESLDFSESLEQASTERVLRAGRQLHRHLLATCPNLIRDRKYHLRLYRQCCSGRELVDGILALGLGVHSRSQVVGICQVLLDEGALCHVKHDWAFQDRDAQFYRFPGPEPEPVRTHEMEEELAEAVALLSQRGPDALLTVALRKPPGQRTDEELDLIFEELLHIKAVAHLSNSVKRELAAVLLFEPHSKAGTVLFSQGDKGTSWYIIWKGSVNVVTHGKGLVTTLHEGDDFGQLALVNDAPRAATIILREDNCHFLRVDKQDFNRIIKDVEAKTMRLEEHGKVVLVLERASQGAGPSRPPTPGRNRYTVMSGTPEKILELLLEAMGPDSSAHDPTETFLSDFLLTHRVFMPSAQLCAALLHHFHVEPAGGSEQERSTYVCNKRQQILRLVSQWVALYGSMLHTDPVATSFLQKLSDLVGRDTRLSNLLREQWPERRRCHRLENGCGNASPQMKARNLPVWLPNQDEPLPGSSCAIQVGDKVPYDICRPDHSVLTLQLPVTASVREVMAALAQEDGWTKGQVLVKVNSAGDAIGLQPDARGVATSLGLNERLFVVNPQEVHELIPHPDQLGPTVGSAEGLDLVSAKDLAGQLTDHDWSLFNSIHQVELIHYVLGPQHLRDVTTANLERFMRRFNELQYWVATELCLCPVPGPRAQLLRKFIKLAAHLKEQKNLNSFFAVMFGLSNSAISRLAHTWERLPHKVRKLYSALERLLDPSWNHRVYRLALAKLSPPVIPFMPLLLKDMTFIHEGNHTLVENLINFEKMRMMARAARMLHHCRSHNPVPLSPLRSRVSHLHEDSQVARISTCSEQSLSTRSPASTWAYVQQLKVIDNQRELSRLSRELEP
Inconclusive results are not listed. Calls of active or inactive are those of the source. Calls come from the whole dose curve; as a rule, active = well fitted inhibition curve with a large enough effect; inconclusive = small, poorly fitted or top-dose-only effect; inactive = no such curve, though single readings can be large or run the other way.

Molecule	activity change, negative = inhibition
COc1ccc(/C=C/C(=O)c2ccc(OC)cc2OC)cc1	inactive
COc1cccc2c1C(=O)c1c(O)c3c(c(O)c1C2=O)C[C@@](O)(C(C)=O)C[C@@H]3O[C@H]1C[C@H](N)[C@H](O)[C@H](C)O1	47.7% [at 30.8 µM] (inactive)
C/C=C(/C(=C/C)c1ccc(O)cc1)c1ccc(O)cc1	-9.27% [at 30.8 µM] (inactive)
c1ccc(-c2ccc(C(c3ccccc3)n3ccnc3)cc2)cc1 (centres undefined)	inactive
